Species: Rattus norvegicus
Experiment: Open TG-GATES - Regimen: Single
Assay type: toxicity, organism-based, Sprague-Dawley
Design: regimen Single, gender Male, age 6 weeks
Conditions: in vivo, po, 1000 mg/kg, 3 h, tissue Kidney, route gavage, dose level High
observationType: KIDNEY_L
I'd appreciate it if you included the unit after the number.

Use these answered entries as a reference point.
{"compound": "CCc1cc(C(N)=S)ccn1 [ETHIONAMIDE]", "measurement": "1 g"}
{"compound": "Clc1ccccc1CN1CCc2sccc2C1", "measurement": "0.9 g"}
{"compound": "O=C(O)c1cc(/N=N/c2ccc(S(=O)(=O)Nc3ccccn3)cc2)ccc1O", "measurement": "1 g"}
{"compound": "O=C(O)c1cn(C2CC2)c2cc(N3CCNCC3)c(F)cc2c1=O", "measurement": "0.8 g"}

Now consider a different compound.
Suppose we examine the compound C[C@H](CS)C(=O)N1CCC[C@H]1C(=O)O ; what KIDNEY_L value has been reported?
1 g
